Catalogue of EC50 values
Target: T1, human 5T4-His protein (human, UniProt Q13641 32-355)
T1 construct: also called recombinant 5T4 protein (human 5T4-his tag); human 5T4 protein; not shown: His tag
T1 sequence (looked up): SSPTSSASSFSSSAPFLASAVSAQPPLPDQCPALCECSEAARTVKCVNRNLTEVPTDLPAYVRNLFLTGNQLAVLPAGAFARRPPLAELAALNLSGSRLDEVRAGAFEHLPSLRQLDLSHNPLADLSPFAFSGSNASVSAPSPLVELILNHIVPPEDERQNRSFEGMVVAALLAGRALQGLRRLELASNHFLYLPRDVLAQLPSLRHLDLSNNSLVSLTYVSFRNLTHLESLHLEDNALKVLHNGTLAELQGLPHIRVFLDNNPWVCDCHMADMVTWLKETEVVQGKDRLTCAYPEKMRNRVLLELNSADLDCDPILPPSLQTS
Test: ELISA, coated 5T4-His
Protocol: To evaluate the binding activity of 393E9 humanized antibodies to human 5T4, the 393E9 chimeric antibody (393E9-C) along with 393E9 humanized mAbs were subjected to ELISA test. Briefly, microtiter plates were coated with human 5T4-His protein at 1 μg/ml in PBS, 100 μl/well at 4° C. overnight, then blocked with 150 μl/well of 1% BSA. […] After washing, the plates were developed with TMB substrate and analyzed by spectrophotometer at OD 450 nm. […]
Quick reminder: number only, in nM, skip the unit.

Known EC50 results, listed for orientation:
393E9_hVH3_hVL1 (antibody, V domains shown, humanized) VH: QVQLVESGGGVVQPGGSLRLSCAASGFTFTDYYMSWVRQAPGKGLEWVGFIRNKGNGYTTENSASVKGRFTISRDNSKSTLYLQMNSLRAEDTAVYYCARYRGNPHYAMDYWGQGTLVTVSS VL: DIVLTQSPDSLAVSLGERATINCRASESVEFYGTSFLQWYQQKPGQPPKLLIYGASNVESGVPDRFSGSGSGTDFTLTISSLQAEDIAVYFCQQSRKVPSTFGGGTKVEIK :: 0.16
393E9_hVH3_hVL3 (antibody, V domains shown, humanized) VH: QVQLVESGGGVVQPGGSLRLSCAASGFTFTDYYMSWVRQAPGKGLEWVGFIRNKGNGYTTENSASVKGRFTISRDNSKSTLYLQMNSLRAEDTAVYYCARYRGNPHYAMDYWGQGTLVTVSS VL: DIQLTQSPSSLSASVGDRVTITCRASESVEFYGTSFLQWYQQKPGKAPKLLIYGASNVESGVPSRFSGSGSGTDFTLTISSLQPEDIATYFCQQSRKVPSTFGGGTKVEIK :: 0.14

Query: Request the reported EC50 associated with 393E9_hVH2_hVL2 (antibody, V domains shown, humanized) VH: EVQLVESGGGLIQPGGSLRLSCAASGFTFTDYYMSWVRQPPGKGLEWVGFIRNKGNGYTTENSASVKGRFTISRDNSKSTLYLQMNSLRAEDTAVYYCARYRGNPHYAMDYWGQGTLVTVSS VL: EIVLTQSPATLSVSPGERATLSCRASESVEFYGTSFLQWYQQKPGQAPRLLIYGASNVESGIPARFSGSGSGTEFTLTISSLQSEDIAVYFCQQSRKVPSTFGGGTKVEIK
Result: 0.12

Query: Request the reported EC50 associated with 393E9_hVH5_hVL5 (antibody, V domains shown, humanized) VH: EVQLVESGGGLVQPGRSLRLSCTASGFTFTDYYMSWVRQAPGKGLEWVGFIRNKGNGYTTENSASVKGRFTISRDNSKSILYLQMNSLKTEDTAVYYCARYRGNPHYAMDYWGQGTLVTVSS VL: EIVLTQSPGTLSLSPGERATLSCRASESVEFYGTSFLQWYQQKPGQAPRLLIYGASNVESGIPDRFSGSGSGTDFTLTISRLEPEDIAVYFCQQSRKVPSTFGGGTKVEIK
Result: 0.11

Query: Request the reported EC50 associated with 393E9_hVH6_hVL1 (antibody, V domains shown, humanized) VH: EVQLVESGGGLVQPGGSLRLSCAASGFTFTDYYMSWVRQAPGKGLEWVGFIRNKGNGYTTENSASVKGRFTISRDNAKSSLYLQMNSLRAEDTAVYYCARYRGNPHYAMDYWGQGTLVTVSS VL: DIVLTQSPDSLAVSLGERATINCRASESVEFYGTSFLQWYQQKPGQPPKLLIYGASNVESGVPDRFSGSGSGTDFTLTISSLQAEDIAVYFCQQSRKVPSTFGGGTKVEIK
Result: 0.11

Query: Request the reported EC50 associated with 393E9_hVH2_hVL5 (antibody, V domains shown, humanized) VH: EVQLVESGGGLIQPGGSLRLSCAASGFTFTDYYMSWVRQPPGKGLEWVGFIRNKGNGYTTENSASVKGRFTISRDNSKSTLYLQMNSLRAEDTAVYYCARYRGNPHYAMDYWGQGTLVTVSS VL: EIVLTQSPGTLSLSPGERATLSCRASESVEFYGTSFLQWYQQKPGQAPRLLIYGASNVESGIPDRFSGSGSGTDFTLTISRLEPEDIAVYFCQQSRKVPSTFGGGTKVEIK
Result: 0.11

Where do the numbers come from? From patent US20250154277A1.
